Source: patent US11702666B2

Molecular target: T1, CDK4 (Homo sapiens, UniProt P11802)
T1 construct: expressed in transfected cells; host or cells: HEK293 CDK4/CDK6 double-knockout cells stably expressing E2F1-Dp-1-LB (clone #11); early experiments in plain HEK293
T1 sequence (P11802 2-303): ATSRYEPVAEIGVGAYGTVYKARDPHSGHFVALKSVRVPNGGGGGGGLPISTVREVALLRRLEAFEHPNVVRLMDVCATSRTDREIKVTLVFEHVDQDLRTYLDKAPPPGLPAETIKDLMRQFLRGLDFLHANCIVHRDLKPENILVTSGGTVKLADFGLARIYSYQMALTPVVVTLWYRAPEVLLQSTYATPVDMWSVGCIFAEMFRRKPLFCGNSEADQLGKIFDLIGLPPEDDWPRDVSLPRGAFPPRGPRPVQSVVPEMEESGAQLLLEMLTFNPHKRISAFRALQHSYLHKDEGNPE
Assay: p16 activity assay with CDK4 (NanoBiT, cell line #11)
Format: cell-based
Details: p16 (CDKN2A) mutants, with CDK4
Text: We developed an assay that could measure the interaction between Rb, E2F1 and Dp-1. When the Rb and E2F1 proteins are in close proximity or in complex, a light signal is observed. […] To examine the ability of the assay to detect variants in CDKN2A that affect function, known loss of function mutants and unknown COSMIC mutants were created. […] The data provided is in Luminescence (RLU) of a single experiment with each condition performed in triplicate and represent average+SD. […]

Molecule	Observed function
p16 S56N: p16 (CDKN2A) mutant (protein) MEPAAGSSMEPSADWLATAAARGRVEEVRALLEAGALPNAPNSYGRRPIQVMMMGNARVAELLLLHGAEPNCADPATLTRPVHDAAREGFLDTLVVLHRAGARLDVRDAWGRLPVDLAEELGHRDVARYLRAAAGGTRGSNHARIDAAEGPSDIPD	Normal
p16 A148T: p16 (CDKN2A) mutant (protein) MEPAAGSSMEPSADWLATAAARGRVEEVRALLEAGALPNAPNSYGRRPIQVMMMGSARVAELLLLHGAEPNCADPATLTRPVHDAAREGFLDTLVVLHRAGARLDVRDAWGRLPVDLAEELGHRDVARYLRAAAGGTRGSNHARIDATEGPSDIPD	Normal
p16 D108N: p16 (CDKN2A) mutant (protein) MEPAAGSSMEPSADWLATAAARGRVEEVRALLEAGALPNAPNSYGRRPIQVMMMGSARVAELLLLHGAEPNCADPATLTRPVHDAAREGFLDTLVVLHRAGARLDVRNAWGRLPVDLAEELGHRDVARYLRAAAGGTRGSNHARIDAAEGPSDIPD	Normal
